biological target: human/mouse CD137 chimera 1550 (human/mouse chimera) (UniProt Q07011); experiment: flow cytometry, transfected 293-F cells
Each entry below carries its reported relative MFI normalized to full-length human CD137.
Number, no unit, nothing else.

-- ask Using the record for 1620/1621 (antibody, V domains shown) VH: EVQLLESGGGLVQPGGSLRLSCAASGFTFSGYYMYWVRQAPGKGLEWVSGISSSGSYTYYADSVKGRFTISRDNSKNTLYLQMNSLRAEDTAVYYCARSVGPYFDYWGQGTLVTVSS VL: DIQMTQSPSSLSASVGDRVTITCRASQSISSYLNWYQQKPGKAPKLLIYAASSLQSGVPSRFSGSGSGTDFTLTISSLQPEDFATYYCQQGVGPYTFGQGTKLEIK , report its relative MFI normalized to full-length human CD137.
-- reply 0.17

-- ask Using the record for 1200/1201 (antibody, V domains shown) VH: EVQLLESGGGLVQPGGSLRLSCAASGFTFSSYAMSWVRQAPGKGLEWVSGISGGGGGTYYADSVKGRFTISRDNSKNTLYLQMNSLRAEDTAVYYCARDVAYFDYWGQGTLVTVSS VL: DIQMTQSPSSLSASVGDRVTITCRASQSISSYLNWYQQKPGKAPKLLIYAASSLQSGVPSRFSGSGSGTDFTLTISSLQPEDFATYYCQQYYIPHTFGQGTKLEIK , report its relative MFI normalized to full-length human CD137.
-- reply 0.05
